Tgt: T1, hPDL1(19-239)-TVMV-His (human, UniProt Q9NZQ7 19-239)
T1 construct: The construct name says 19-239, the running text says amino acids 18-239; Expressed in HEK293T cells; also called PD-L1-His; PD-L1-TVMV-His
Assay: HTRF competition, PD-1-Ig (20 nM) binding to human PD-L1-His (10 nM)
Positions of bridges follow the written chain, without caps; N, C: chain ends. Non-standard residues stand in square brackets, D forms with d. NMeNle = CCCC[C@H](NC)C(=O)O; dNle = CCCC[C@@H](N)C(=O)O; NMeA = CN[C@@H](C)C(=O)O; Sar = CNCC(=O)O
Metric: pIC50
Note: pIC50 values are expressed as the negative base-10 logarithm of concentration in M.

{"Binder": "{CH2CO}-F[NMeA]NPHL[Sar]WSW[dNle][NMeNle]RCG-NH2 (thioether N-14; SMILES CCCC[C@H]1NC(=O)[C@H](Cc2c[nH]c3ccccc23)NC(=O)[C@H](CO)NC(=O)[C@H](Cc2c[nH]c3ccccc23)NC(=O)CN(C)C(=O)[C@H](CC(C)C)NC(=O)[C@H](Cc2c[nH]cn2)NC(=O)[C@@H]2CCCN2C(=O)[C@H](CC(N)=O)NC(=O)[C@H](C)N(C)C(=O)[C@H](Cc2ccccc2)NC(=O)CSC[C@@H](C(=O)NCC(N)=O)NC(=O)[C@H](CCCNC(=N)N)NC(=O)[C@H](CCCC)N(C)C1=O, macrocyclic peptide cyclized via the ClAc moiety with the downstream cysteine) [Compound No. 70]", "pIC50": 5.06}

Next up:
Field pIC50 (entry {CH2CO}-F[NMeA]NPHLPWSW[NMeNle][NMeNle]RCG-NH2 (thioether N-14; SMILES CCCC[C@H]1C(=O)N(C)[C@@H](CCCC)C(=O)N[C@@H](CCCNC(=N)N)C(=O)N[C@H](C(=O)NCC(N)=O)CSCC(=O)N[C@@H](Cc2ccccc2)C(=O)N(C)[C@@H](C)C(=O)N[C@@H](CC(N)=O)C(=O)N2CCC[C@H]2C(=O)N[C@@H](Cc2c[nH]cn2)C(=O)N[C@@H](CC(C)C)C(=O)N2CCC[C@H]2C(=O)N[C@@H](Cc2c[nH]c3ccccc23)C(=O)N[C@@H](CO)C(=O)N[C@@H](Cc2c[nH]c3ccccc23)C(=O)N1C, macrocyclic peptide cyclized via the ClAc moiety with the downstream cysteine) [Compound No. 55] ) reads 8.40
